Hey, just so you know, these numbers are from patent US20230321064A1.

- experiment_notes: Blood PK of Trehalose after IV and PO administration, with and without PO Miglustat (LC-MS/MS)
- Type: in vivo, mouse
- condition_parameters: male, C57BL6/N, mouse, whole blood; 10 g/kg trehalose PO + 150 mg/kg miglustat PO

- molecule: "OC[C@H]1O[C@H](O[C@H]2O[C@H](CO)[C@@H](O)[C@H](O)[C@H]2O)[C@H](O)[C@@H](O)[C@@H]1O [Trehalose, dihydrate]"
  Cmax: "189 µM"

----------
- experiment_notes: Blood PK of Trehalose after IV and PO administration, with and without PO Miglustat (LC-MS/MS)
- Assay type: in vivo, mouse
- condition_parameters: male, C57BL6/N, mouse, whole blood; 1 g/kg trehalose IV
- Procedure: LC-MS/MS bioanalytical methodologies were developed for the analysis of Trehalose, Miglustat and glucose in mouse whole blood and brain. Blood samples were prepared as follows; 20 μL of whole blood was transferred to a 96 wellplate and diluted 1:1 with sterile distilled water. Samples were protein precipitated by addition of 160 μL of 2.5% of trichloroacetic acid (TCA). […]
property_name: Tmax (min)

- compound: "OC[C@H]1O[C@H](O[C@H]2O[C@H](CO)[C@@H](O)[C@H](O)[C@H]2O)[C@H](O)[C@@H](O)[C@@H]1O [Trehalose, dihydrate]"
  readout_value: 20
